- tgt: UniProt E1BK36
- Sequence (E1BK36 1-524): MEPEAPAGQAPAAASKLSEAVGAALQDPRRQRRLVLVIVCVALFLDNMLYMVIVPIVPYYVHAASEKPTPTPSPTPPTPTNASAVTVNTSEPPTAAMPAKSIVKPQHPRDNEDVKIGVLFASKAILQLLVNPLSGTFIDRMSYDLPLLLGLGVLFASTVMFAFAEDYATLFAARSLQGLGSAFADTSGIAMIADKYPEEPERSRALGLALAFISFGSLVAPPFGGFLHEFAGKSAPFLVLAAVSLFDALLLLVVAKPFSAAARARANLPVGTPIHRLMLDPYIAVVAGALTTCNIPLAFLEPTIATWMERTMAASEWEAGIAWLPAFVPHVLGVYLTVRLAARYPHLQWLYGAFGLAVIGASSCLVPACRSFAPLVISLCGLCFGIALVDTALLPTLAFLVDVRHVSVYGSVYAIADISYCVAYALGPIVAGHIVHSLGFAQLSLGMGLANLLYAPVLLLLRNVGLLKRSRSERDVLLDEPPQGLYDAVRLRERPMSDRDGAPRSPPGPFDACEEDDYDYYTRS
- assay method text: Radioligand Binding Assay
- stated conditions: Bovine binding Ki, CHO-K1 membranes with recombinant bovine VAChT, [3H]Compound X6 0.3 nM
assay endpoint: Ki (nM)

>>> recorded_number("O=C(NCc1ccnc(Cl)c1)N1CC2(CCN(C/C=C/c3ccc(Cl)cc3)CC2)c2c(Cl)cc(Cl)cc21 [Example 59]")
284
>>> recorded_number("O=C(NCc1cnc(Cl)s1)N1CC2(CCN(C/C=C/c3ccc(Cl)cc3)CC2)c2c(OC(F)(F)F)cccc21 [Example 95]")
1010
>>> recorded_number("O=C(NCc1ccnc(F)c1)N1CC2(CCN(C/C=C/c3ccc(Cl)cc3)CC2)c2c(Cl)cc(Cl)cc21 [Example 60]")
986
>>> recorded_number("O=C(NCc1cocn1)N1CC2(CCN(C/C=C/c3ccc(Cl)c(Cl)c3)CC2)c2c1ccc1scnc21 [Example 29]")
367
>>> recorded_number("O=C(NCc1ccnc(Cl)c1)N1CC2(CCN(C/C=C/c3ccc(Cl)cc3)CC2)c2cc(Cl)c(Cl)cc21 [Example 142]")
107

----------
- Test system: Dirofilaria immitis microfilariae
- assay method text: Dirofilaria immitis, Microfilariae (DiMF) In Vitro Assay
- stated conditions: Dirofilaria immitis; 72 hours; read-out: Di MF
assay endpoint: log10(minimal effective concentration) (log10 of the value in µM)

>>> recorded_number("O=C(NCc1ccnc(Cl)c1)N1CC2(CCN(C/C=C/c3ccc(F)cc3)CC2)c2cc(OC(F)(F)F)ccc21")
0.40
>>> recorded_number("Cn1ncc2c3c(ccc21)N(C(=O)NCc1ccnc(Cl)c1)CC31CCN(C/C=C/c2ccc(Cl)cc2)CC1")
1.52
>>> recorded_number("O=C(NCc1cnc(Cl)s1)N1CC2(CCN(C/C=C/c3ccc(Cl)cc3)CC2)c2cc(C(F)(F)F)ccc21")
1.00
>>> recorded_number("O=C(NCc1ccnc(Cl)c1)N1CC2(CCN(C/C=C/c3ccc(Cl)cc3)CC2)c2c1ccc(F)c2Cl")
0.76
>>> recorded_number("COc1ccc2c(c1)C1(CCN(C/C=C/c3ccc(Cl)c(Cl)c3)CC1)CN2C(=O)NCc1ccnc(Cl)c1")
1.52
>>> recorded_number("O=C(NCc1ccnc(Cl)c1)N1CC2(CCN(C/C=C/c3ccc(Cl)cc3)CC2)c2cc(C(F)(F)F)ccc21")
1.00
>>> recorded_number("O=C(NCc1cnc(Cl)s1)N1CC2(CCN(C/C=C/c3ccc(Cl)cc3)CC2)c2cc3c(cc21)COC3")
0.76

----------
- System: Dirofilaria immitis microfilariae
- assay method text: Dirofilaria immitis, Microfilariae (DiMF) In Vitro Assay
- stated conditions: Dirofilaria immitis; 72 hours; read-out: Di MF
Note to self: values exactly at 10 µM are Met. So minimal effective concentration at or above 10 µM is Met, below is Not met.

>>> label("N#Cc1cc2c(cc1C(F)(F)F)N(C(=O)NCc1ccnc(Cl)c1)CC21CCN(C/C=C/c2ccc(Cl)c(Cl)c2)CC1")
"Not met"
>>> label("O=C(NCc1ccnc(Cl)c1)N1CC2(CCN(C/C=C/c3ccc(Cl)c(Cl)c3)CC2)c2c1ccc(Cl)c2Cl")
"Met"
>>> label("O=C(NCc1ccnc(Cl)c1)N1CC2(CCN(C/C=C/c3ccc(Cl)c(Cl)c3)CC2)c2cc(C(F)(F)F)ccc21")
"Not met"
>>> label("O=C(NCc1ccnc(Cl)c1)N1CC2(CCN(C/C=C/c3ccc(Cl)cc3)CC2)c2c1ccc(OC(F)(F)F)c2Cl")
"Met"
>>> label("O=C(NCc1ccnc(Cl)c1)N1CC2(CCN(C/C=C/c3ccc(F)cc3)CC2)c2c1ccc(F)c2Cl")
"Not met"
>>> label("O=C(NCc1ccnc(Cl)c1)N1CC2(CCN(C/C=C/c3ccc(F)cc3)CC2)c2cc(Cl)c(Cl)cc21")
"Not met"
>>> label("O=C(NCc1ccnc(Cl)c1)N1CC2(CCN(C/C=C/c3ccc(Cl)c(Cl)c3)CC2)c2cc(Cl)cc(Cl)c21")
"Not met"

----------
- tgt: bovine vesicular acetylcholine transporter (VAChT) (Bos taurus, UniProt E1BK36)
- assay method text: Radioligand Binding Assay
- stated conditions: Bovine binding Ki, CHO-K1 membranes with recombinant bovine VAChT, [3H]Compound X6 0.3 nM
assay endpoint: Ki (nM)

>>> recorded_number("O=C(NCc1ccnc(Cl)c1)N1CC2(CCN(C/C=C/c3ccc(Cl)c(Cl)c3)CC2)c2cc(F)c(C(F)(F)F)cc21 [Example 129]")
32.8
>>> recorded_number("O=C(NCc1ccnc(Cl)c1)N1CC2(CCN(C/C=C/c3ccc(Cl)cc3)CC2)c2c1ccc(F)c2C(F)(F)F [Example 173]")
465
>>> recorded_number("O=C(NCc1ccnc(Cl)c1)N1CC2(CCN(C/C=C/c3ccc(Cl)c(Cl)c3)CC2)c2c1ccc1scnc21 [Example 40]")
110
>>> recorded_number("O=C(NCc1ccnc(Cl)c1)N1CC2(CCN(C/C=C/c3ccc(F)cc3)CC2)c2c1cccc2C(F)(F)F [Example 153]")
218
>>> recorded_number("CS(=O)(=O)c1ccc2c(c1)C1(CCN(C/C=C/c3ccc(Cl)cc3)CC1)CN2C(=O)NCc1ccnc(Cl)c1 [Example 79]")
11300
>>> recorded_number("O=C(NCc1ccnc(C(F)(F)F)c1)N1CC2(CCN(C/C=C/c3ccc(F)cc3)CC2)c2cc(OC(F)(F)F)ccc21 [Example 175]")
452
>>> recorded_number("O=C(NCc1ccnc(Cl)c1)N1CC2(CCN(C/C=C/c3ccc(Cl)cc3)CC2)c2cc(-n3ccccc3=O)ccc21 [Example 74]")
11600

----------
pKi values, listed per item
- tgt: bovine vesicular acetylcholine transporter (VAChT) (Bos taurus)
- assay method text: Radioligand Binding Assay
- stated conditions: Bovine binding Ki, CHO-K1 membranes with recombinant bovine VAChT, [3H]Compound X6 0.3 nM
pKi: −log10 of the molar value.
assay endpoint: pKi

>>> recorded_number("N#Cc1cccc2c1C1(CCN(C/C=C/c3ccc(Cl)cc3)CC1)CN2C(=O)NCc1ccnc(Cl)c1")
7.42
>>> recorded_number("O=C(NCc1ccnc(Cl)c1)N1CC2(CCN(C/C=C/c3ccc(Cl)cc3)CC2)c2c(OC(F)(F)F)cccc21")
5.95
>>> recorded_number("O=C(NCc1ccnc(F)c1)N1CC2(CCN(C/C=C/c3ccc(Cl)cc3)CC2)c2c(-c3ccccc3)cccc21")
6.53
>>> recorded_number("O=C(NCc1cnc(Cl)s1)N1CC2(CCN(C/C=C/c3ccc(Cl)cc3)CC2)c2cc3c(cc21)COC3")
7.51
>>> recorded_number("COc1ccc2ccc(CN3CCC4(CC3)CN(C(=O)NCc3ccnc(Cl)c3)c3ccc(C#N)cc34)c(C)c2n1")
7.55
>>> recorded_number("O=C(NCc1ccnc(F)c1)N1CC2(CCN(C/C=C/c3ccc(F)cc3)CC2)c2ccc(OC(F)(F)F)cc21")
6.92
>>> recorded_number("O=C(NCC1CCCC1)N1CC2(CCN(C/C=C/c3ccc(Cl)c(Cl)c3)CC2)c2c1ccc1scnc21")
5.78
>>> recorded_number("N#Cc1ccc(/C=C/CN2CCC3(CC2)CN(C(=O)NCc2ccnc(Cl)c2)c2cccc(C(F)(F)F)c23)cc1")
6.51
>>> recorded_number("N#Cc1ccc2c(n1)C1(CCN(C/C=C/c3ccc(Cl)cc3)CC1)CN2C(=O)NCc1ccnc(Cl)c1")
7.42
>>> recorded_number("O=C(NCc1ccnc(Cl)c1)N1CC2(CCN(C/C=C/c3ccc(C(F)(F)F)cc3)CC2)c2c1cccc2C(F)(F)F")
5.88
>>> recorded_number("O=C(NCc1ccnc(Cl)c1)N1CC2(CCN(C/C=C/c3ccc(C(F)(F)F)cc3)CC2)c2cc(F)c(Cl)cc21")
7.32
>>> recorded_number("N#Cc1ccc(/C=C/CN2CCC3(CC2)CN(C(=O)NCc2ccnc(Cl)c2)c2cc4c(cc23)COC4)cc1")
7.15
>>> recorded_number("O=C(NCc1ccnc(F)c1)N1CC2(CCN(C/C=C/c3ccc(Cl)cc3)CC2)c2cc3c(cc21)COC3")
6.49
>>> recorded_number("O=C(NCc1ccnc(F)c1)N1CC2(CCN(C/C=C/c3ccc(Cl)cc3)CC2)c2c1ccc(Cl)c2Cl")
6.48
>>> recorded_number("O=C(NCc1ccnc(F)c1)N1CC2(CCN(C/C=C/c3ccc(Cl)cc3)CC2)c2cc(Br)ccc21")
7.49
>>> recorded_number("O=C(NCc1cncs1)N1CC2(CCN(C/C=C/c3ccc(Cl)c(Cl)c3)CC2)c2c1ccc1scnc21")
6.88
>>> recorded_number("N#Cc1ccc2c(n1)C1(CCN(C/C=C/c3ccc(Cl)c(Cl)c3)CC1)CN2C(=O)NCc1ccnc(Cl)c1")
7.47
>>> recorded_number("N#Cc1c(F)ccc2c1C1(CCN(C/C=C/c3ccc(Cl)cc3)CC1)CN2C(=O)NCc1ccnc(Cl)c1")
7.36
>>> recorded_number("CN(C)c1ccc2c(c1)C1(CCN(C/C=C/c3ccc(Cl)c(Cl)c3)CC1)CN2C(=O)NCc1ccnc(Cl)c1")
6.29
>>> recorded_number("Cc1nc2c3c(ccc2s1)N(C(=O)NCc1ccnc(Cl)c1)CC31CCN(C/C=C/c2ccc(Cl)cc2)CC1")
6.58
>>> recorded_number("O=C(NCc1ccnc(F)c1)N1CC2(CCN(C/C=C/c3ccc(Cl)cc3)CC2)c2ccc(-c3ccccc3OC(F)(F)F)cc21")
7.53
>>> recorded_number("COc1ccc(/C=C/CN2CCC3(CC2)CN(C(=O)NCc2ccnc(Cl)c2)c2cc(C(F)(F)F)ccc23)cc1")
7.69
>>> recorded_number("N#Cc1ccc(/C=C/CN2CCC3(CC2)CN(C(=O)NCc2ccnc(Cl)c2)c2c(F)ccc(C(F)(F)F)c23)cc1")
5.80
>>> recorded_number("O=C(NCc1ccnc(C(F)(F)F)c1)N1CC2(CCN(C/C=C/c3ccc(OC(F)(F)F)cc3)CC2)c2cc(OC(F)(F)F)ccc21")
6.12
>>> recorded_number("O=C(NCc1ccnnc1)N1CC2(CCN(C/C=C/c3ccc(Cl)c(Cl)c3)CC2)c2c1ccc1scnc21")
5.92
>>> recorded_number("Cn1cc(CNC(=O)N2CC3(CCN(C/C=C/c4ccc(Cl)c(Cl)c4)CC3)c3c2ccc2scnc32)cn1")
7.56
>>> recorded_number("N#Cc1ccc(/C=C/CN2CCC3(CC2)CN(C(=O)NCc2ccnc(Cl)c2)c2ccc(F)c(Cl)c23)cc1")
7.64
>>> recorded_number("Cn1ncc2c3c(ccc21)N(C(=O)NCc1ccnc(Cl)c1)CC31CCN(C/C=C/c2ccc(Cl)cc2)CC1")
6.29

The measurements presented in this section are drawn from patent US20160296499A1.
